Species on record: Homo sapiens
Test: Inhibition of human recombinant NAE assessed as inhibition of NEDD8-UbcH12 complex formation at 1 nM after 1.5 hrs by Western blot analysis
Activity calls are given as the source filed them. The calls are words filed in the database; no cut-off is given here.
OBSERVED_PROPERTY: inhibition

These solved cases illustrate the format of a correct answer.
>>> endpoint_result("CCCCNc1ncnc2c1ncn2[C@@H]1O[C@H](COS(N)(=O)=O)[C@@H](O)[C@H]1O")
"< 58%"
>>> endpoint_result("CNc1ncnc2c1ncn2[C@@H]1O[C@H](COS(N)(=O)=O)[C@@H](O)[C@H]1O")
"inactive"
>>> endpoint_result("CCCCCNc1ncnc2c1ncn2[C@@H]1O[C@H](COS(N)(=O)=O)[C@@H](O)[C@H]1O")
"< 62%"
>>> endpoint_result("Nc1ncnc2c1ncn2[C@@H]1O[C@H](COS(N)(=O)=O)[C@@H](O)[C@H]1O")
"< 16%"
>>> endpoint_result("CCCNc1ncnc2c1ncn2[C@@H]1O[C@H](COS(N)(=O)=O)[C@@H](O)[C@H]1O")
"inactive"

GET /values?readout=inhibition&item= "CCCCCCNc1ncnc2c1ncn2[C@@H]1O[C@H](COS(N)(=O)=O)[C@@H](O)[C@H]1O" > 70%

GET /values?readout=inhibition&item= "CCCCCCCNc1ncnc2c1ncn2[C@@H]1O[C@H](COS(N)(=O)=O)[C@@H](O)[C@H]1O" inactive
